measured target: human CXCR4 (human, UniProt P61073 1-352)
Sequence (P61073 whole entry): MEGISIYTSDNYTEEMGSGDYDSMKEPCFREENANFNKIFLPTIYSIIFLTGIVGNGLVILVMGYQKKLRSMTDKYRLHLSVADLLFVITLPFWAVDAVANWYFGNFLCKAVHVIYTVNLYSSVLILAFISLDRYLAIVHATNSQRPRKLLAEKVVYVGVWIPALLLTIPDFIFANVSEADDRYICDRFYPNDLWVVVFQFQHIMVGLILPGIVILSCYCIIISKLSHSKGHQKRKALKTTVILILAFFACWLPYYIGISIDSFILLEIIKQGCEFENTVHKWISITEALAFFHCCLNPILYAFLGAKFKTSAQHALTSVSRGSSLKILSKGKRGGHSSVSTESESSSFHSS
assay protocol: cell-based or functional assay
Bridges are numbered along the chain shown (N, C = ends). [ ]: non-standard residue; d: D form. 2Nal = N[C@@H](Cc1ccc2ccccc2c1)C(=O)O; Cit = NC(=O)NCCC[C@H](N)C(=O)O; Dab = NCC[C@H](N)C(=O)O
measure name: IC50 (nM) Ca2+ assay (method 2)
Kindly format the answer as number then unit.

Ask: What measured IC50 (nM) Ca2+ assay (method 2) goes with cyclo(YRRCRG[dP]RR[2Nal]CYQK[dP]P) (disulfide 4-11; SMILES N=C(N)NCCC[C@@H]1NC(=O)[C@@H]2CSSC[C@H](NC(=O)[C@H](Cc3ccc4ccccc4c3)NC(=O)[C@H](CCCNC(=N)N)NC(=O)[C@H](CCCNC(=N)N)NC(=O)[C@H]3CCCN3C(=O)CNC1=O)C(=O)N[C@@H](Cc1ccc(O)cc1)C(=O)N[C@@H](CCC(N)=O)C(=O)N[C@@H](CCCCN)C(=O)N1CCC[C@@H]1C(=O)N1CCC[C@H]1C(=O)N[C@@H](Cc1ccc(O)cc1)C(=O)N[C@@H](CCCNC(=N)N)C(=O)N[C@@H](CCCNC(=N)N)C(=O)N2) [Example 69] ?
Result: 1.8 nM

Ask: What measured IC50 (nM) Ca2+ assay (method 2) goes with cyclo(YR[Cit]CRG[dP][Dab]R[2Nal]CY[Cit]K[dP]P) (disulfide 4-11; SMILES N=C(N)NCCC[C@@H]1NC(=O)[C@@H]2CSSC[C@H](NC(=O)[C@H](Cc3ccc4ccccc4c3)NC(=O)[C@H](CCCNC(=N)N)NC(=O)[C@H](CCN)NC(=O)[C@H]3CCCN3C(=O)CNC1=O)C(=O)N[C@@H](Cc1ccc(O)cc1)C(=O)N[C@@H](CCCNC(N)=O)C(=O)N[C@@H](CCCCN)C(=O)N1CCC[C@@H]1C(=O)N1CCC[C@H]1C(=O)N[C@@H](Cc1ccc(O)cc1)C(=O)N[C@@H](CCCNC(=N)N)C(=O)N[C@@H](CCCNC(N)=O)C(=O)N2) [Example 135] ?
Result: 4.7 nM
